targetSystem: T1, hCD138 (human Syndecan-1), extracellular domain (human) (UniProt P18827)
T1 sequence: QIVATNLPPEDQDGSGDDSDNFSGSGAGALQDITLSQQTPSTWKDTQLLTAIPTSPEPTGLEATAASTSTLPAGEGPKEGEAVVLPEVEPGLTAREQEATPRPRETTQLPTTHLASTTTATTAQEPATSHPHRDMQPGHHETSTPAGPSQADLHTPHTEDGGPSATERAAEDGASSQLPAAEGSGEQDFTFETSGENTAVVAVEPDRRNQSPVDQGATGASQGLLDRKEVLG
assayText: SPR; bivalent (avidity) set-up: CD138 amine-coupled to CM5 chip (240 RU), IgG as analyte 33-300 nM; Biacore T200, HBS-P+ pH 7.4, 25 °C; 1:1 Langmuir model
Here, each record is paired with measured Kd data.
Report only the number, with the unit nM understood.

binder: <CD138> Ha-Lg (antibody, V domains shown) VH: QVQLQQSGSELMMPGASVKISCKATGYTFSNYWIEWVKQRPGHGLEWIGEILPGTGSTIYNEKFKGKATFTADISSNTVQMQLSSLTSEDSAVYYCARRDYYGNFYYAMDYWGQGTSVTVSS VL: DIQMTQSTSSLSASLGDRVTISCSASQGISNYLNWYQQKPDGTVELLIYYTSSLHSGVPSRFSGSGSGTDYSLTISNLEPEDIGTYYCQQYSKLPRTFGGGTKLEIK
unitAbbreviation: nM
Kd: 0.83

Query :: Looking for the measured Kd of <CD138> Hb-Lw (antibody, V domains shown) VH: QVQLQQSGSELMMPGASVKISCKATGYTFTGYWIEWVKQRPGHGLEWIGEILPGTGRTIYNEKFKGKATFTADISSNTVQMQLSSLTSEDSAVYYCARRDYYGNFYYAMDYWGQGTSVTVSS VL: DIQMTQSTSSLSASLGDRVTISCSASQGINNYLNWYQQKPDGTVELLIYYTSTLQSGVPSRFSGSGSGTDYSLTISNLEPEDIGTYYCQQYSKLPRTFGGGTKLEIK , can you help?
Result :: 0.28

Query :: Looking for the measured Kd of <CD138> Hg-Lw (antibody, V domains shown) VH: QVQLQQSGSELMMPGASVKISCKATGYTFTGYWIEWVKQRPGHGLEWIGEILPGSGSTNYNEKFKGKATFTADISSNTVQMQLSSLTSEDSAVYYCARRDYYGNFYYAMDYWGQGTSVTVSS VL: DIQMTQSTSSLSASLGDRVTISCSASQGINNYLNWYQQKPDGTVELLIYYTSTLQSGVPSRFSGSGSGTDYSLTISNLEPEDIGTYYCQQYSKLPRTFGGGTKLEIK , can you help?
Result :: 230

Query :: Quick one: Kd of <CD138> Hb-Lg (antibody, V domains shown) VH: QVQLQQSGSELMMPGASVKISCKATGYTFTGYWIEWVKQRPGHGLEWIGEILPGTGRTIYNEKFKGKATFTADISSNTVQMQLSSLTSEDSAVYYCARRDYYGNFYYAMDYWGQGTSVTVSS VL: DIQMTQSTSSLSASLGDRVTISCSASQGISNYLNWYQQKPDGTVELLIYYTSSLHSGVPSRFSGSGSGTDYSLTISNLEPEDIGTYYCQQYSKLPRTFGGGTKLEIK ?
Result :: 2.4
